# TARGET SYSTEM: T1, recombinant human integrin αvβ6 (human, UniProt P18564 22-707)
# T1 construct: also called αvβ6 (R&D systems); αvβ6 receptor
# T1 sequence (chain, as listed by the source limits assumed, chain 1 of 2): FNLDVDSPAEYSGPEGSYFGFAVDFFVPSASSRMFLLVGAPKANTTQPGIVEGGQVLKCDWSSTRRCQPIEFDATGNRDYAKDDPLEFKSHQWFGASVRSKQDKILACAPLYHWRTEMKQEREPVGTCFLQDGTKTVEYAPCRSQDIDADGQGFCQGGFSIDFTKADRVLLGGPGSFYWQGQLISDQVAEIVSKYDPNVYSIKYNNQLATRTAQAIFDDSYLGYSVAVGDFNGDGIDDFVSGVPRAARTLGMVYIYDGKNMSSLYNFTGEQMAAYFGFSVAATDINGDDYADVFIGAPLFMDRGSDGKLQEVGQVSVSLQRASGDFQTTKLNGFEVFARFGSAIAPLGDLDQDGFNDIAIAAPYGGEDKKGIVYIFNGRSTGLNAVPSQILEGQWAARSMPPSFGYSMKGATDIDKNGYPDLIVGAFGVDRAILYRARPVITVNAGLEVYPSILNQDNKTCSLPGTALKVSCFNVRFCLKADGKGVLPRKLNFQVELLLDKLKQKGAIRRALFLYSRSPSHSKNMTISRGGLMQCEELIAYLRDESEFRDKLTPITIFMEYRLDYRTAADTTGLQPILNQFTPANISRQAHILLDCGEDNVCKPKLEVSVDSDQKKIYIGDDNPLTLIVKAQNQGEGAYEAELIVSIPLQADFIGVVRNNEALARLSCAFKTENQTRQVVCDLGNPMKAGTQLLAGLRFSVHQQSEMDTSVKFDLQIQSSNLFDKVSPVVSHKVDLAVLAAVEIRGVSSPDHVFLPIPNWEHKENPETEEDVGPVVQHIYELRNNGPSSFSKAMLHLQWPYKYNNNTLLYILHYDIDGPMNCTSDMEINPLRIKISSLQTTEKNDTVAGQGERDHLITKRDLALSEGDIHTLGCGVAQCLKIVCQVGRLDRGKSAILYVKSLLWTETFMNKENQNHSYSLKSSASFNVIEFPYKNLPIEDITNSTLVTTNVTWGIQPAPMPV
# T1 sequence (P18564 22-707 limits assumed, chain 2 of 2): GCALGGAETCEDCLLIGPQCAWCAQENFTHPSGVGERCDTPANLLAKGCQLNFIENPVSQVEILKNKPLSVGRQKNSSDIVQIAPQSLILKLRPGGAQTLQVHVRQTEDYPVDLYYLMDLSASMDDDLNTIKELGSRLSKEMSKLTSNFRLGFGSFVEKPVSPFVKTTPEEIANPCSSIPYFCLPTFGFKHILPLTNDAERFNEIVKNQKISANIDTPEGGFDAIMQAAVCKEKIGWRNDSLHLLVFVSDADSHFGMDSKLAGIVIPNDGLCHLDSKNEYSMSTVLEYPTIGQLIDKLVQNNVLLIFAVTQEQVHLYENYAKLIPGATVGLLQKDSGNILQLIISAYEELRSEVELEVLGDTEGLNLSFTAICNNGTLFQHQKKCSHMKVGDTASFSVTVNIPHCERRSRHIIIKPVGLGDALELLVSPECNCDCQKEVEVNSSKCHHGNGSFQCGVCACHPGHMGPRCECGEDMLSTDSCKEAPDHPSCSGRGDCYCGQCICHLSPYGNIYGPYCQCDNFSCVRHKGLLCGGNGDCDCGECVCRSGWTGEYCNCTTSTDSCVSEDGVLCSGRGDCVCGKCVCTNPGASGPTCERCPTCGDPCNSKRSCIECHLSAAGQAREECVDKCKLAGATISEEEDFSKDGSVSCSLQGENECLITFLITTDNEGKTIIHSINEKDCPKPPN
# PROCEDURE SUMMARY: ELISA: integrin coated on plate, supernatant of transfected 293 cells at 1/10 dilution, anti-mouse IgG-HRP; score normalized to expression;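 further: scale runs from 0 (no apparent binding) to 4 (robust binding), with scores adjusted for clone protein expression as determined by a murine IgG ELISA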
READOUT TYPE: binding intensity score (0-4)

binder="C6 VH / RGD3-2 Vk murine IgG (antibody, V domains shown, Murine IgG, supernatant of 293 cells; CDRL1 swap into the C6D4 murine IgG vector, VH not altered; also called C6RGD3-2) VH: QIQLLQSGPELKKPGETVKISCKASGYTFTDYSMHWVKQAPGKGLKWVARINTETGEPTFADDFRGRFAVSLETSASTAYLQINNLKNEDTATYFCAIFYYGRDSWGQGTTLTVSS VL: DIVMTQSPSSLAVSAGEKVTMSCKSSQSLLGRGDLGRLKKQKDNALAWYQQKPGQSPRLLIYWASTRESGVPDRFTGSGSGTDFTLTISSVQAEDLAVYYCKQSYNLLSFGAGTKLELKR" experimental_result="4 score 0-4"
binder="C6 VH / RGD3-8 Vk murine IgG (antibody, V domains shown, Murine IgG, supernatant of 293 cells; CDRL1 swap into the C6D4 murine IgG vector, VH not altered; also called C6RGD3-8) VH: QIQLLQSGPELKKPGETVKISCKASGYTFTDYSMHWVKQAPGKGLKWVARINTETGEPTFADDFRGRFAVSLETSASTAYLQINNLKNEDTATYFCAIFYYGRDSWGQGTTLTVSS VL: DIVMTQSPSSLAVSAGEKVTMSCKSSQSLLGRGDLGRNALAWYQQKPGQSPRLLIYWASTRESGVPDRFTGSGSGTDFTLTISSVQAEDLAVYYCKQSYNLLSFGAGTKLELKR" experimental_result="3 score 0-4"
binder="C6 VH / RGD3-6 Vk murine IgG (antibody, V domains shown, Murine IgG, supernatant of 293 cells; CDRL1 swap into the C6D4 murine IgG vector, VH not altered; also called C6RGD3-6) VH: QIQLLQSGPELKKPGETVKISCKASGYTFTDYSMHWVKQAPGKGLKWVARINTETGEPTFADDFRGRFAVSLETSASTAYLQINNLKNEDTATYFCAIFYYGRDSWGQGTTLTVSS VL: DIVMTQSPSSLAVSAGEKVTMSCKSSQSLLGRGDLGRLKNALAWYQQKPGQSPRLLIYWASTRESGVPDRFTGSGSGTDFTLTISSVQAEDLAVYYCKQSYNLLSFGAGTKLELKR" experimental_result="4 score 0-4"
binder="C6 VH / RGD3-9 Vk murine IgG (antibody, V domains shown, Murine IgG, supernatant of 293 cells; CDRL1 swap into the C6D4 murine IgG vector, VH not altered; also called C6RGD3-9) VH: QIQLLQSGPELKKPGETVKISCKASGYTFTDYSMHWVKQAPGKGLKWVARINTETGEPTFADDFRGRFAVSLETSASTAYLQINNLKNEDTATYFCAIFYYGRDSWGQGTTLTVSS VL: DIVMTQSPSSLAVSAGEKVTMSCKSSQSLLGRGDLGRLKKQKDHHWYQQKPGQSPRLLIYWASTRESGVPDRFTGSGSGTDFTLTISSVQAEDLAVYYCKQSYNLLSFGAGTKLELKR" experimental_result="3 score 0-4"
